// IC50 lookup, one value per entry
system: NCI-H929 human plasmacytoma cells; assay: CellTiter-Glo luminescent cell viability assay, NCI-H929; type: cell-based; settings: 48 hours, 20 to 0.1 μM
measuredMetric: IC50

compound: CN1CCN(CCc2ccc(NC(=O)c3ccc4nc(-c5nc6ccccc6[nH]5)[nH]c4c3)cc2)CC1
measuredMetric: IC50
valueObserved: 5 to 10 µM
//
compound: CN1CCN(c2ccc3nc(-c4ccc(OCc5ccccc5)cc4O)[nH]c3c2)CC1
measuredMetric: IC50
valueObserved: > 25 µM
//
compound: CN1CCN(c2ccc3nc(-c4nc5ccccc5[nH]4)[nH]c3c2)CC1
measuredMetric: IC50
valueObserved: 10 to 15 µM
//
compound: CN1CCCC2(CCCN(CCc3ccc(NC(=O)c4ccc5nc(-c6cc(-c7cccnc7O)ccc6O)[nH]c5c4)cc3)C2)C1 (stereo not shown) [drawing 1788]
measuredMetric: IC50
valueObserved: ≤ 5 µM

###

pIC50: recorded values
system: MCF7 human breast tumor cells; assay: CellTiter-Glo luminescent cell viability assay, MCF7; assay type: cell-based; settings: 48 hours, 20 to 0.1 μM
pIC50: −log10 of the molar value.

molecule: Cc1cc(N2CCN(C)CC2)cc2nc(-c3nc4cc(N5CCN(C)CC5)cc(C)c4[nH]3)[nH]c12
pIC50: < 4.60

molecule: COc1ncccc1-c1ccc2[nH]c(-c3nc4cc(C(=O)Nc5ccc(CCN6CCN(C)CC6)cc5)ccc4[nH]3)nc2c1
pIC50: 4.82 to 5.00

molecule: CN1CCN(c2ccc3nc(-c4ccc(O)c(O)c4O)[nH]c3c2)CC1
pIC50: 4.82 to 5.00

molecule: CC1CCN(CCc2ccc(NC(=O)c3cn(-c4cccc(-c5ccc(N(C)C)cc5)n4)nc3N)cc2)CC1
pIC50: 5.00 to 5.30

molecule: COc1ccc2c(c1)OCc1cnc(-n3cc(C(=O)NCCCc4ccncc4)c(N)n3)nc1-2
pIC50: 4.82 to 5.00

molecule: CN1CCN(CCc2ccc(NC(=O)c3ccc4nc(-c5nc6ccccc6[nH]5)[nH]c4c3)cc2)CC1
pIC50: < 4.60

molecule: CCN1CCC2(CCN(c3cc(C)c4nc(-c5c(NC[C@@H](O)c6cccc(Cl)c6)cc[nH]c5=O)[nH]c4c3)C2)C1 (some centres unmarked)
pIC50: 5.00 to 5.30

molecule: COc1ccc2c(c1)CCc1cnc(-n3cc(C(=O)Nc4ccc(CCN5CCN6CCC[C@H]6C5)cc4)c(N)n3)nc1-2
pIC50: 4.82 to 5.00

###

tested on: NCI-H929 human plasmacytoma cells; experiment: CellTiter-Glo luminescent cell viability assay, NCI-H929; type: cell-based; conditions: 48 hours, 20 to 0.1 μM
Reported IC50 values are given for each entry in this list.

compound: COc1ccc2c(c1)CCc1cnc(-n3cc(C(=O)NCCc4c[nH]c5ccccc45)c(N)n3)nc1-2
IC50: > 25 µM

compound: COc1ccc2c(c1)CCc1cnc(-n3cc(C(=O)Nc4ccc(CCN5CCN6CCC[C@H]6C5)cc4)c(N)n3)nc1-2
IC50: 5 to 10 µM

compound: COc1ccc2c(c1)CCc1cnc(-n3cc(C(=O)Nc4ccc(/C=C/CN5CCN(C)CC5)cc4)c(N)n3)nc1-2
IC50: 5 to 10 µM

compound: COc1ncccc1-c1ccc(O)c(-c2nc3ccc(C(=O)Nc4ccc(CCN5CCN(C)CC5)cc4)cc3[nH]2)c1
IC50: ≤ 5 µM

compound: CCN1CCC2(CCN(CCc3ccc(NC(=O)c4ccc5[nH]c(-c6cc(-c7cccnc7OC)ccc6O)nc5c4)cc3)C2)C1 (centres unmarked)
IC50: ≤ 5 µM

compound: CCN(CC)CCOc1ccc(NC(=O)c2cn(-c3ncc4c(n3)-c3ccccc3OC4)nc2N)cc1
IC50: > 25 µM

compound: CCN1CCC2(CCN(CCc3ccc(NC(=O)c4ccc5[nH]c(-c6cc(-c7cccnc7O)ccc6O)nc5c4)cc3)C2)C1 (centres unmarked) [drawing 1786]
IC50: ≤ 5 µM

compound: COc1ccc2c(c1)OCc1cnc(-n3cc(C(=O)NCCCc4ccncc4)c(N)n3)nc1-2
IC50: 10 to 15 µM

###

molecular target: human IGF1R kinase domain (Homo sapiens, UniProt P08069); construct: human IGF1R precursor protein corresponding to the amino acids positions 974 through 1293; 6xHis; test: IGF1R tyrosine phosphorylation inhibition, Alphascreen phosphotyrosine PT66 assay; details: recombinant kinase domain, 1 hour co-incubation, 20 to 0.1 μM
Sequence (P08069 974-1293): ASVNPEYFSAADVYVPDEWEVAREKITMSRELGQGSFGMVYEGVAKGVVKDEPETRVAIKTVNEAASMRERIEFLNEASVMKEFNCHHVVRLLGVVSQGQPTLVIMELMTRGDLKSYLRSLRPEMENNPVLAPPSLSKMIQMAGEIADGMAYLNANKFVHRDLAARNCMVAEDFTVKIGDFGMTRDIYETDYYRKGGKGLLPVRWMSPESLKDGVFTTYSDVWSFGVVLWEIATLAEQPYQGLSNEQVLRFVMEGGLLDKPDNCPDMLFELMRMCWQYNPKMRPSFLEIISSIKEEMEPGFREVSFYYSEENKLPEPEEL
pIC50: −log10 of the molar value.
# pIC50 per record follows
measuredMetric: pIC50

molecule: COc1ccc2c(c1)CCc1cnc(-n3cc(C(=O)NCCc4c[nH]c5ccccc45)c(N)n3)nc1-2
valueObserved: ≥ 5.30
--
molecule: CN1CCN(c2ccc3nc(-c4ccc(OCc5ccccc5)cc4O)[nH]c3c2)CC1
valueObserved: ≥ 5.30
--
molecule: COc1ccc2c(c1)OCc1cnc(-n3cc(C(=O)NCCCc4ccncc4)c(N)n3)nc1-2
valueObserved: 4.82 to 5.00
--
molecule: COc1ccc2c(c1)CCc1cnc(-n3cc(C(=O)Nc4ccc(CCN5CCC(N)CC5)cc4)c(N)n3)nc1-2
valueObserved: ≥ 5.30
--
molecule: CCN1CCC2(CCN(CCc3ccc(NC(=O)c4ccc5[nH]c(-c6cc(-c7cccnc7OC)ccc6O)nc5c4)cc3)C2)C1 (stereo not drawn)
valueObserved: ≥ 5.30
--
molecule: CN1CCN(c2ccc3nc(-c4cc(-c5ccc(N(C)C)cc5)ccc4O)[nH]c3c2)CC1
valueObserved: ≥ 5.30

###

molecular target: recombinant TrkA kinase domain (Homo sapiens); construct: commercial preparation of recombinant TrkA kinase domain; test: TrkA tyrosine kinase activity inhibition, Alphascreen phosphotyrosine PT66 assay; conditions: compounds 10 to 0.005 μM, 1 hour incubation
Sequence (P04629 510-781 limits assumed): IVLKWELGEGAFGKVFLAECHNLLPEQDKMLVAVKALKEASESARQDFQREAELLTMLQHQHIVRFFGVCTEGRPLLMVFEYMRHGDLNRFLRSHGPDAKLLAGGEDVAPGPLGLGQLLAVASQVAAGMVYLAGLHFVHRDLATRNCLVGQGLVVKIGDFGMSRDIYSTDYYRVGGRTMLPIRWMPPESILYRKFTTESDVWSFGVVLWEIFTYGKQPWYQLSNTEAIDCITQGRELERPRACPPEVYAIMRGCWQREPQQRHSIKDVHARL
pIC50: −log10 of the molar value.
measuredMetric: pIC50

compound: COc1ncccc1-c1ccc(O)c(-c2nc3cc(C(=O)NCc4ccc(CN5CCN(C)CC5)cc4)ccc3[nH]2)c1
measuredMetric: pIC50
valueObserved: < 6.70
//
compound: O=C(NCCc1c[nH]cn1)c1cc2nc(-c3cc(-c4cccnc4O)ccc3O)[nH]c2cc1Cl
measuredMetric: pIC50
valueObserved: > 7.70
//
compound: COCCN1CCC(CNC(=O)c2ccc3nc(-c4cc(-c5cccnc5OC)ccc4O)[nH]c3c2)C1 (stereo not drawn)
measuredMetric: pIC50
valueObserved: 6.70 to 7.70
//
compound: CCN(CC)CCCNC(=O)c1ccc2nc(-c3cc(-c4cccnc4OC)ccc3O)[nH]c2c1
measuredMetric: pIC50
valueObserved: > 7.70
//
compound: COc1ncccc1-c1ccc(O)c(-c2nc3ccc(C(=O)NCCCN4CCCCC4C)cc3[nH]2)c1 (stereo not drawn)
measuredMetric: pIC50
valueObserved: > 7.70
//
compound: COc1ncccc1-c1ccc(O)c(-c2nc3ccc(C(=O)NCCc4c[nH]cn4)cc3[nH]2)c1
measuredMetric: pIC50
valueObserved: 6.70 to 7.70
//
compound: COc1ncccc1-c1ccc(O)c(-c2nc3ccc(C(=O)NC4CCCC(N)C4)cc3[nH]2)c1 (stereo not drawn)
measuredMetric: pIC50
valueObserved: < 6.70
//
compound: COc1ncccc1-c1ccc(O)c(-c2nc3cc(C(=O)N[C@H](CO)Cc4c[nH]cn4)ccc3[nH]2)c1
measuredMetric: pIC50
valueObserved: > 7.70
//
compound: CCN1CCC2(CCN(CCc3ccc(NC(=O)c4ccc5[nH]c(-c6cc(-c7cccnc7O)ccc6O)nc5c4)cc3)C2)C1 (stereo not drawn) [drawing 1792]
measuredMetric: pIC50
valueObserved: > 7.70
//
compound: CN1CCCC2(CCCN(CCc3ccc(NC(=O)c4ccc5nc(-c6cc(-c7cccnc7O)ccc6O)[nH]c5c4)cc3)C2)C1 (stereo not drawn) [drawing 1793]
measuredMetric: pIC50
valueObserved: < 6.70
//
compound: COc1ncccc1-c1ccc(O)c(-c2nc3ccc(C(=O)NCCC4CCCN4C)cc3[nH]2)c1 (stereo not drawn)
measuredMetric: pIC50
valueObserved: 6.70 to 7.70
//
compound: COc1ncccc1-c1ccc(O)c(-c2nc3cc(C(=O)N[C@@H](Cc4c[nH]cn4)C(N)=O)ccc3[nH]2)c1
measuredMetric: pIC50
valueObserved: > 7.70
//
compound: COc1ncccc1-c1ccc(O)c(-c2nc3cc(C(=O)N[C@@H](CO)Cc4c[nH]cn4)ccc3[nH]2)c1
measuredMetric: pIC50
valueObserved: > 7.70
//
compound: COc1ncccc1-c1ccc(O)c(-c2nc3cc(C(=O)N[C@@H](C)Cc4c[nH]cn4)ccc3[nH]2)c1
measuredMetric: pIC50
valueObserved: < 6.70
//
compound: COc1ncccc1-c1ccc(O)c(-c2nc3cc(C(=O)NCCc4c[nH]cn4)c(F)cc3[nH]2)c1
measuredMetric: pIC50
valueObserved: > 7.70
//
compound: COc1ncccc1-c1ccc(O)c(-c2nc3ccc(C(=O)Nc4ccc(OCCCN5CCN(C)CC5)cc4)cc3[nH]2)c1
measuredMetric: pIC50
valueObserved: < 6.70
//
compound: COc1cc(O)c(-c2nc3ccc(C(=O)NCCc4c[nH]cn4)cc3[nH]2)cc1-c1cccnc1OC
measuredMetric: pIC50
valueObserved: 6.70 to 7.70
//
compound: COc1ncccc1-c1ccc(O)c(-c2nc3ccc(C(=O)Nc4ccc(OCCN5CCN(C)CC5)cc4)cc3[nH]2)c1
measuredMetric: pIC50
valueObserved: < 6.70
//
compound: CN1CCN(CCc2ccc(NC(=O)c3cc4nc(-c5cc(-c6cccnc6O)ccc5O)[nH]c4cc3Cl)cc2)CC1
measuredMetric: pIC50
valueObserved: 6.70 to 7.70
//
compound: COc1ncccc1-c1ccc(O)c(-c2nc3ccc(C(=O)NCCCCN4CCCC4)cc3[nH]2)c1 [drawing 1807]
measuredMetric: pIC50
valueObserved: < 6.70
//
compound: CN1CCN(CCc2ccc(NC(=O)c3ccc4nc(-c5cc(-c6cccnc6O)ccc5O)[nH]c4c3)cc2)CC1
measuredMetric: pIC50
valueObserved: 6.70 to 7.70
//
compound: COc1ncccc1-c1ccc(O)c(-c2nc3ccc(C(=O)NCCCCN4CCCC4)cc3[nH]2)c1 [drawing 1800]
measuredMetric: pIC50
valueObserved: > 7.70
//
compound: COc1ncccc1-c1ccc(O)c(-c2nc3ccc(C(=O)NCC4CCCC(CN)C4)cc3[nH]2)c1 (stereo not drawn)
measuredMetric: pIC50
valueObserved: < 6.70
//
compound: COc1ncccc1-c1ccc(O)c(-c2nc3ccc(C(=O)Nc4ccc(CCN5CCN(c6ccncc6)CC5)cc4)cc3[nH]2)c1
measuredMetric: pIC50
valueObserved: 6.70 to 7.70
//
compound: COc1ncccc1-c1ccc(O)c(-c2nc3ccc(C(=O)NCC4CCN(CCO)CC4)cc3[nH]2)c1
measuredMetric: pIC50
valueObserved: > 7.70
//
compound: COc1ncccc1-c1ccc(O)c(-c2nc3ccc(C(=O)NCCCN4CCN(C)CC4)cc3[nH]2)c1
measuredMetric: pIC50
valueObserved: < 6.70
//
compound: COc1ncccc1-c1ccc(O)c(-c2nc3ccc(C(=O)NCc4ccc5c(c4)CCCN5C)cc3[nH]2)c1
measuredMetric: pIC50
valueObserved: < 6.70
//
compound: COC(=O)[C@H](Cc1c[nH]cn1)NC(=O)c1ccc2[nH]c(-c3cc(-c4cccnc4OC)ccc3O)nc2c1
measuredMetric: pIC50
valueObserved: 6.70 to 7.70
//
compound: COc1ncccc1-c1ccc(O)c(-c2nc3ccc(C(=O)NCC4CCN(Cc5ccccc5)C4)cc3[nH]2)c1 (stereo not drawn)
measuredMetric: pIC50
valueObserved: 6.70 to 7.70
//
compound: COc1ncccc1-c1ccc(O)c(-c2nc3ccc(C(=O)NCCCCCN(C)C)cc3[nH]2)c1
measuredMetric: pIC50
valueObserved: < 6.70
